Molecular target: interaction of human SOS1 (SOS1) with human K-RasG12C (Homo sapiens (Human))
Sequence (Q07889 564-1049 limits assumed): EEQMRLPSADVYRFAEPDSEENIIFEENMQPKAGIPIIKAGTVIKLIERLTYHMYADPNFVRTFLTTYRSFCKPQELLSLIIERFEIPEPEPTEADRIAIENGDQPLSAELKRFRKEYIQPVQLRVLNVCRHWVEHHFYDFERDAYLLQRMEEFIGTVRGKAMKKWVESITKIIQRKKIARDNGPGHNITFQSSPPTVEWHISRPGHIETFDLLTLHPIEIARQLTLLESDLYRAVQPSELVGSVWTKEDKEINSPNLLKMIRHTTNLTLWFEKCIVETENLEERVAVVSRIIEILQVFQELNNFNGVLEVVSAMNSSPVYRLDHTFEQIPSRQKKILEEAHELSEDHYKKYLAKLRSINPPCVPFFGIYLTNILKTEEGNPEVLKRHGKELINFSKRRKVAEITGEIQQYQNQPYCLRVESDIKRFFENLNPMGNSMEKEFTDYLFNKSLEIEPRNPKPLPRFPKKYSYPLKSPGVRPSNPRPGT
Experiment: Biochemical assay: hK-RasG12C interaction assay with hSOS1 (HTRF)
Assay type: binding
Conditions: GST-hK-RasG12C with His-hSOS1, 60 min incubation at 20° C., mean, read-out: K-RasG12C - SOS interaction assay IC50 (mean)
parameter: IC50 (nM)

Cc1nc(N[C@H](C)c2cccc(C(F)(F)C(C)(C)O)c2F)c2cc(P(C)(C)=O)c(C)nc2n1 = 14.3

a. CCP(=O)(CC)c1cnc2nc(C)nc(N[C@H](C)c3cccc(C(F)(F)C(C)(C)O)c3F)c2c1
b. Cc1nc(N[C@H](C)c2cccc(Br)c2F)c2cc(P(C)(C)=O)ncc2n1
c. Cc1nc(N[C@H](C)c2cccc(C(F)(F)C(C)O)c2F)c2cc(P(C)(=O)C(C)C)ncc2n1 (single isomer, unassigned) [Example 80]
**Query** Give the ascending ranking of the items by reported IC50. Labels, requested order.
**Result** c, a, b
